System: ma104 cells
Experiment: adenosine release from ma104 cells
Assay type: cell-based
Details: 8 hours incubation
Recorded Endpoint: EC50 (nM)
Write the value in nM as a bare number.

Enquiry: Return EC50 measured with ma104 cells given this compound: Nc1nc(N)c2nc(CNc3ccc(C(=O)N[C@@H](CCC(=O)O)C(=O)O)cc3)cnc2n1 [aminopterin, 4-amino-pteroyl-L-glutamic acid]
Return: 0.5
